The reader will find reported pIC50 values listed item by item below.
Biological target: hOX1R (Homo sapiens)
Construct: expressed in transfected cells
Sequence (O43613 1-425): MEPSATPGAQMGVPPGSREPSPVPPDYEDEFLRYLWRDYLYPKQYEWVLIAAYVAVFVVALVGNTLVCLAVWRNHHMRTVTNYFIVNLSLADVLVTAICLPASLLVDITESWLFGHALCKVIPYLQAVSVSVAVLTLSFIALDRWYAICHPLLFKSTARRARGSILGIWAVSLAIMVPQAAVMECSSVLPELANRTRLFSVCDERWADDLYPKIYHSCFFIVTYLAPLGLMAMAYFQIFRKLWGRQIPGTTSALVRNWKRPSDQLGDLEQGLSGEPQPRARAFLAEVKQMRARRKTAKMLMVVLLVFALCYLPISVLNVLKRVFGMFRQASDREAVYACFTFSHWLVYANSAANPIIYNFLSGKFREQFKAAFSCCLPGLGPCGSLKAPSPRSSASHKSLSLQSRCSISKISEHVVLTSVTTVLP
Assay: In vitro test of OX1R: calcium signal change in cells detected with FLIPR
Format: cell-based
Conditions: IC50 detected in FLIPR, hOX1R, HEK293-OX1 stable cell strain, Fluo-4 AM calcium signal, Orexin A at EC70
Protocol: The inhibitive effect of a compound on OX1 and OX2 GPCR receptor was evaluated by detecting calcium signal change in cells with FLIPR, and IC50 value of compound was used as an indication. […] c) FLIPR Experiment: • 1) The cell culture medium in 384-well plate was washed away with a vacuum pump. […] The program was run and the fluorescence values were read. d) Data Analysis: Prism5.0 was used to analysis the data, and the IC50 value of the compound was calculated.
Value format note: pIC50 is -log10 of concentration (mol/L); just state the number.

// worked examples, pIC50 included
compound: Cc1ccc(-c2nccs2)c(C(=O)N2C3CC[C@H]2CC[C@@H]3OCc2ccc(F)cn2)c1 [Example 37]
pIC50: 7.70
--
compound: O=C(c1cc(Cl)ccc1-n1nccn1)N1C2CC[C@H]1CC[C@@H]2COc1ccc(F)cn1 [Example 16]
pIC50: 7.25
--
compound: Cc1ccc(-c2ncccn2)c(C(=O)N2C3CC[C@H]2CC[C@@H]3COc2cccnc2)c1 [Example 31]
pIC50: 6.52

Request: Give me measured pIC50, please, for this compound: Cc1ccc(-c2ncccn2)c(C(=O)N2C3CCC2[C@@H](COc2ccccn2)CC3)c1 (stereo partly shown) [Example 23]
Response: 7.35
